Target: T1, canine OX40L, full length membrane form, expressed on HEK293 cells (canine)
T1 chain: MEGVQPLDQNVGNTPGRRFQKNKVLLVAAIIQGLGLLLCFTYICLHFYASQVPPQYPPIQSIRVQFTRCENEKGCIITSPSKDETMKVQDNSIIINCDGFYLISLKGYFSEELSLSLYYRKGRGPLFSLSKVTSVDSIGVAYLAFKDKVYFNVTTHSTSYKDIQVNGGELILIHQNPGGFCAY
Test: cell-based or functional assay
Reported endpoint: % Signal Inhibition Rep2 (%)
Hi! Could you send only the number? It should be in %, unit omitted.

See these solved cases before continuing.
| Binder | Units | % Signal Inhibition Rep2 |
| --- | --- | --- |
| PMX088 (antibody, V domains shown) VH: EVQLVESGGDLVKPGGSLRLSCVASGFTFNTYHMNWVRQAPGKGLHWVAFINSGGTGTGYSDTVKGRFTISRDYAKNTLYLQMNSLRAEDTAVYYCVSGSIWTHFDYWGQGTLVTVSS VL: SYVLTQLPSVSMTLRQTAHITCGGDIIGSKSVYWYQQKLGQAPVLIIYRDTNRPTGIPERFSGASSGNTATLTISGALAEDEADYYCQVWDSNTQAVFGGGTHLTVL | % | 3.51 |
| PMX028 (antibody, V domains shown, also called PMX28) VH: EVQMVESGGDLVKPGGSLRLSCVASGFTFSDYHMSWVRQAPGKGLQWVAYITSGGSSTSYADAVKGRFTISRDNAKNTLYLQMNSLRAEDTAVYYCASDLVLVVGGGVYWGQGTLVTVSS VL: SYELTQPPSVNVTLRETAHITCGGDSIGSKYVQWIQQNPGQAPVVIIYKDSNRPTGIPERFSGANSGNTATLTISGALAEDEADYYCQVGDSGTKAVFGEGTQLTVL | % | 75.4 |
| PMX027 (antibody, V domains shown, also called PMX27) VH: EVHLVESGGDLVKPGGSLRLSCVASGFTFSTYHMSWVRQAPGKGLQWVAFINAGEISTNYADAVKGRFTISRDNAKNIFYLQMNSLRAEDTAVYYCATGHIWIRPFDYWGQGTLVTVSS VL: SYVLTQLPSMSVTLRQTARITCEGNSIGRKRVNWYQQKLGQVPVLIIYDDDSRPSGIPERFSGANSGNTATLTISGALAEDEAEYYCQVWDSSNNWVFGEGTQLTVL | % | 83.5 |
| PMX105 (antibody, V domains shown) VH: EVQLVESGGDLVKPGGSLRLSCVASGFTFNTYHMNWVRQAPGKGLHWVAFINSGGSGTSYEDTVQGRFTISRDYAKNTLYLQMNSLRAEDTAVYYCACGSIWTHFDYWGQGTLVTVSS VL: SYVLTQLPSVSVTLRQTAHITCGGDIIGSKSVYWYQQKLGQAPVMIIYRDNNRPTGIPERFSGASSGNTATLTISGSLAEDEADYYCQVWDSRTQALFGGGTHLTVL | % | 94.8 |

Okay, next one:
Documented % Signal Inhibition Rep2 of PMX054 (antibody, V domains shown, also called PMX54) VH: EVHLVESGGDLVKPEGSLRLSCVVSGFTFSSYDMSWVRQAPGKGLQWVAYISSDGRSTGYTDAVKGRFTISRDNAKKTLYLQMNSLRSEDTAVYYCAKETPRWGFDYWGQGTLVTVSS VL: SYVLTQLPSVSVTLRQTARITCGGASIGSKNVYWHQQKLGQAPLLIIYDDSSRPSGIPERFSGANSGNTATLTISGALAEDEADYYCQVWDSSTSVFGGGTHLTVL : 32.8
